Data origin: patent US10722519B2

- ASSAY_NOTES: in vivo
- CONDITION_CONTEXT: male, Sprague-Dawley, rat, in vivo, 10 mg/kg
Quick reference for MAT among some compounds
State the value with its unit after it.

[[record]]
compound = "COc1c(N2CCNC(C)C2)c(F)cc2c(=O)c(C(=O)O)cn(C3CC3)c12 (stereo not shown)"
measurement_name = "MAT"
result = "0 h"

[[record]]
compound = "C[C@H]1COc2c(N3CCN(C)CC3)c(F)cc3c(=O)c(C(=O)O)cn1c23"
measurement_name = "MAT"
result = "0 h"


Give the reported MAT for this compound. CCn1cc(C(=O)O)c(=O)c2cc(F)c(N3CCNCC3)cc21
0 h

Give the reported MAT for this compound. CO/N=C1\CN(c2nc3c(cc2F)c(=O)c(C(=O)O)cn3C2CC2)CC1CN (stereo not shown)
0.65 h

====

- ASSAY_NOTES: clinical
- CONDITION_CONTEXT: human, in vivo, 50 mg, Total levofloxacin clearance, CF subjects, serum
MEASUREMENT_NAME: clearance (mL/min)
Reply with just the number (in mL/min).

Give the reported clearance for this molecule. C[C@H]1COc2c(N3CCN(C)CC3)c(F)cc3c(=O)c(C(=O)O)cn1c23
235

====

- ASSAY_NOTES: clinical
- CONDITION_CONTEXT: human, in vivo, iv, 50 mg
MEASUREMENT_NAME: AUC (ng·h/mL)
Reply with just the number (in ng·h/mL).

Give the reported AUC for this molecule. C[C@H]1COc2c(N3CCN(C)CC3)c(F)cc3c(=O)c(C(=O)O)cn1c23 [Levofloxacin, levofloxacin]
2500

====

- ASSAY_NOTES: in vivo
- CONDITION_CONTEXT: Sprague-Dawley, rat, iv, 10 mg/kg
MEASUREMENT_NAME: half-life (min)
Reply with just the number (in min).

Give the reported half-life for this molecule. C[C@H]1COc2c(N3CCN(C)CC3)c(F)cc3c(=O)c(C(=O)O)cn1c23
29.4

====

- ASSAY_NOTES: in vivo
- CONDITION_CONTEXT: Sprague-Dawley, rat, inhaled or intranasal, 10 mg/kg
MEASUREMENT_NAME: half-life (min)
Reply with just the number (in min).

Give the reported half-life for this compound. C[C@H]1COc2c(N3CCN(C)CC3)c(F)cc3c(=O)c(C(=O)O)cn1c23
31.2

====

- ASSAY_NOTES: in vivo
- CONDITION_CONTEXT: Sprague-Dawley, rat, iv, 10 mg/kg
MEASUREMENT_NAME: MRT
State the value with its unit after it.

Give the reported MRT for this compound. C[C@H]1COc2c(N3CCN(C)CC3)c(F)cc3c(=O)c(C(=O)O)cn1c23 [Levofloxacin, levofloxacin]
42 min

====

Quick reference for MRT among some compounds
- ASSAY_NOTES: in vivo
- CONDITION_CONTEXT: male, Sprague-Dawley, rat, in vivo, iv, 10 mg/kg
Reply with just the number (in h).

[[record]]
compound = "CO/N=C1\\CN(c2nc3c(cc2F)c(=O)c(C(=O)O)cn3C2CC2)CC1CN (stereo not shown)"
measurement_name = "MRT"
quantitative_result = 1.41

[[record]]
compound = "C[C@H]1COc2c(N3CCN(C)CC3)c(F)cc3c(=O)c(C(=O)O)cn1c23"
measurement_name = "MRT"
quantitative_result = 0.7

[[record]]
compound = "COc1c(N2CCNC(C)C2)c(F)cc2c(=O)c(C(=O)O)cn(C3CC3)c12 (stereo not shown)"
measurement_name = "MRT"
quantitative_result = 1.39


Give the reported MRT for this compound. CCn1cc(C(=O)O)c(=O)c2cc(F)c(N3CCNCC3)cc21
1.59

====

- ASSAY_NOTES: clinical
- CONDITION_CONTEXT: human, in vivo, po, 750 mg
MEASUREMENT_NAME: half-life (h)
Reply with just the number (in h).

Give the reported half-life for this molecule. C[C@H]1COc2c(N3CCN(C)CC3)c(F)cc3c(=O)c(C(=O)O)cn1c23 [Levofloxacin, levofloxacin]
6.7

====

- ASSAY_NOTES: clinical
- CONDITION_CONTEXT: human, in vivo, 40 mg
MEASUREMENT_NAME: half-life (h)
Reply with just the number (in h).

Give the reported half-life for this compound. C[C@H]1COc2c(N3CCN(C)CC3)c(F)cc3c(=O)c(C(=O)O)cn1c23 [Levofloxacin, levofloxacin]
1.3

====

- ASSAY_NOTES: clinical
- CONDITION_CONTEXT: human, in vivo, 20 mg
MEASUREMENT_NAME: half-life (min)
Reply with just the number (in min).

Give the reported half-life for this compound. C[C@H]1COc2c(N3CCN(C)CC3)c(F)cc3c(=O)c(C(=O)O)cn1c23
54
